Measured Drug metabolism values are reported for all entries that follow.
Test system: Liver
Test: Metabolic stability in rat liver microsomes assessed as metabolic rate measured after 30 mins in presence of NADPH
Assay type: ADME, microsome
Conditions: 0.5 h
Give the number; nmol/min/mg is assumed, so skip it.

Please review the entries below; each comes with its answer.
CCCn1c(-c2cccc(OC)c2)nc2nc(C3CCCC3)[nH]c2c1=O; 0.05
CCCn1c(OC2CCC(O)C2)nc2nc(C3CCCC3)[nH]c2c1=O (stereo not given); 0.1
CCCn1c(Oc2cccnc2C)nc2nc(C3CCCC3)[nH]c2c1=O; 0.07

Please find the next compound below.
Result for CCCn1c(Oc2ccc(F)c(F)c2)nc2nc(C3CCCC3)[nH]c2c1=O , tested on Liver, Drug metabolism: 0.08

Sourced from ChEMBL document CHEMBL3992564
